Values compiled from the supplement of paper PMC10567573.

B1: MYL5 (parent)
chain: FQFASIDVAGNLDYKALSYVITHG

# Variants of: B1
# Assay Name: protein stability index of a GFP-peptide fusion (GPS, HEK-293T) (PSI 1-6); higher = more stable;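 further: lentivirally expressed fusions sorted by FACS into six bins by GFP to DsRed ratio, PSI derived from sequencing read proportions per bin multiplied by bin number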
# Details: c terminus: a fixed tail appended
Quantity Measured: protein stability index
API doc: respond with a numeric literal and nothing else, no unit.

>>> print(df.to_string())
   variant_description        quantity_measured  numeric_value
0                 G24R  protein stability index           3.26
1                  F3N  protein stability index           1.36
2                  A4T  protein stability index           2.81

Let us examine a further case.
Query block: What measured protein stability index goes with L17P ?
Result block: 2.35
